# Tested on: ICR mice
# Assay text: Acute toxicity experiment of single oral administration in mice
# Assay type: in vivo
# Condition label: Day 1; male; 1000 mg/Kg single oral dose
# Description: The mice were fasted one day before the experiment. On the day of the experiment, 6 mice (ICR mice, body weight of 19-21 g, three females and three males) were selected in each experiment group. First of all, one female and one male were selected to orally give 1000 mg/Kg, and observed for 5-10 minutes. If there were no obvious side effects, the remaining 4 animals were orally given the same dose, and observed for 10-15 minutes. […] The state was observed and the body weight was recorded daily. […]
Overview of reported Daily Body Weight of Tested Male Mice (Mean ± SD) across a group of compounds:
Answer with a number only, understood to be in g.

In the examples that follow, each entry is paired with its recorded Daily Body Weight of Tested Male Mice (Mean ± SD).
CNc1cccc2c1C(=O)N(C1CCC(=O)N(CCOC)C1=O)C2=O (stereo not shown): 18.6
COCCN1C(=O)CCC(N2C(=O)c3cccc(NC(C)=O)c3C2=O)C1=O (stereo not shown): 20.1
CS(=O)(=O)CCN1C(=O)CCC(N2C(=O)c3cccc(N)c3C2=O)C1=O (stereo not shown): 19.6
COCCCN1C(=O)CCC(N2C(=O)c3ccc(N)cc3C2=O)C1=O (stereo not shown): 18.2
C[S+]([O-])CCN1C(=O)CCC(N2C(=O)c3cccc(N)c3C2=O)C1=O (stereo not shown): 18.5
Nc1cccc2c1C(=O)N(C1CCC(=O)N(CCO)C1=O)C2=O (stereo not shown): 18.4
COCCCN1C(=O)CCC(N2C(=O)c3cccc(F)c3C2=O)C1=O (stereo not shown): 19.0
COCCCCN1C(=O)CCC(N2C(=O)c3cccc(N)c3C2=O)C1=O (stereo not shown): 17.1

QUERY: Supply reported Daily Body Weight of Tested Male Mice (Mean ± SD) belonging to this compound: CSCCN1C(=O)CCC(N2C(=O)c3cccc(N)c3C2=O)C1=O (stereo not shown)
RESULT: 19.5

QUERY: Indicate the recorded Daily Body Weight of Tested Male Mice (Mean ± SD) value for this compound: COCCN1C(=O)CCC(N2C(=O)c3cccc(F)c3C2=O)C1=O (stereo not shown)
RESULT: 17.6

QUERY: Name the recorded Daily Body Weight of Tested Male Mice (Mean ± SD) of the compound listed here: COCCN1C(=O)CCC(N2C(=O)c3cccc(C)c3C2=O)C1=O (stereo not shown)
RESULT: 17.7

QUERY: Query Daily Body Weight of Tested Male Mice (Mean ± SD) for CCOCCN1C(=O)CCC(N2C(=O)c3cccc(F)c3C2=O)C1=O (stereo not shown)
RESULT: 18.8

QUERY: Give the value of Daily Body Weight of Tested Male Mice (Mean ± SD) reported for the following: COCCN1C(=O)CCC(N2C(=O)c3c(N)ccc(O)c3C2=O)C1=O (stereo not shown)
RESULT: 19.4

QUERY: State its Daily Body Weight of Tested Male Mice (Mean ± SD): COCCN1C(=O)CCC(N2C(=O)c3cccc(O)c3C2=O)C1=O (stereo not shown)
RESULT: 19.4

QUERY: Specify reported Daily Body Weight of Tested Male Mice (Mean ± SD) for the compound shown: COCCCN1C(=O)CCC(N2C(=O)c3cccc(N)c3C2=O)C1=O (stereo not shown)
RESULT: 18.7

QUERY: State its Daily Body Weight of Tested Male Mice (Mean ± SD): CCOCCN1C(=O)CCC(N2C(=O)c3cccc(N)c3C2=O)C1=O (stereo not shown)
RESULT: 18.9
